# study_target: human serum albumin (HSA) (Homo sapiens)
# Sequence (P02768 25-609): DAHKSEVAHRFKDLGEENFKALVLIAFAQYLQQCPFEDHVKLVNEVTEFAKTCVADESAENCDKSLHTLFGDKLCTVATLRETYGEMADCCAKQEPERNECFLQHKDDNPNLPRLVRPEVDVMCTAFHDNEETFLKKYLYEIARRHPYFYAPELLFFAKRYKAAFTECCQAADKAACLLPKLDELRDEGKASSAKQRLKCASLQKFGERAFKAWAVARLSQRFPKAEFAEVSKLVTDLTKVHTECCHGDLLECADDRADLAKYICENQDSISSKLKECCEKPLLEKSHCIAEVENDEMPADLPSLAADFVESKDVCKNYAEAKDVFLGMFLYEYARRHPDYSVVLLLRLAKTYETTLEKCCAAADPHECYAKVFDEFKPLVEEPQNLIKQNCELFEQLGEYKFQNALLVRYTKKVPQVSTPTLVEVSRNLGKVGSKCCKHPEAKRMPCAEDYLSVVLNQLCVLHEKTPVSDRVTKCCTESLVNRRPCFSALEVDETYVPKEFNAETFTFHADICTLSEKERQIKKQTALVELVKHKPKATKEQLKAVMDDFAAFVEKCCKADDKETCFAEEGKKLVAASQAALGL
# protocol_description: Fluorescence emission spectrum (quenching) of HSA with carbamate pesticides
# Assay type: binding
# measurement_setup: 37°, modelling table
Kindly apply the following: Condition met if ΔG(37°) is less than -20, Condition not met in every other case.

- compound: "CNC(=O)Oc1cccc2c1OC(C)(C)C2 [Carbofuran, carbofuran]"
  category: "Condition met"
- compound: "CNC(=O)O/N=C/C(C)(C)S(C)(=O)=O [Aldicarb-sulfone, aldicarb sulfone]"
  category: "Condition not met"
- compound: "CNC(=O)Oc1cccc(C)c1 [Metolcarb, metolcarb]"
  category: "Condition not met"
- compound: "CNC(=O)O/N=C(\\SC)C(=O)N(C)C [Oxamyl, oxamyl]"
  category: "Condition met"
- compound: "CNC(=O)ON=C(C)SC [Methomyl, methomyl]"
  category: "Condition met"
